Target: hBAD Ser99 phosphorylation (Homo sapiens)
Construct: endogenous in cells; 25 carcinoma cell lines of seven cancer types (A7)
Assay: Western blot of BAD Ser99 phosphorylation in MCF7 cells
Details: ImageJ, read-out: EC50 for inhibition of BAD Ser99 phosphorylation
pEC50: −log10 of the molar value.
EXPERIMENTAL_ENDPOINT: pEC50

1. O=C(NC1CCCC1)c1cccc(C(c2ccccc2O)N2CCN(c3cccc(Cl)c3Cl)CC2)c1 (stereo not shown)    6.39

* * *

Molecular target: Human recombinant BAD protein (Homo sapiens, UniProt Q92934)
Sequence (Q92934 whole entry): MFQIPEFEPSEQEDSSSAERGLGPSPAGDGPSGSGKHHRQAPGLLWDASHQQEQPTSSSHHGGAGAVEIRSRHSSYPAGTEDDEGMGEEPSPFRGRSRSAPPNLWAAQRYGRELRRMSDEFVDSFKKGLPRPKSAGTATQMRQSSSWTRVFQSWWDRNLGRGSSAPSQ
Experiment: Surface plasmon resonance analysis (BIAcore)
Settings: SPR, 1:1 binding model with mass transfer; read-out: dissociation equilibrium constants (Kd)
EXPERIMENTAL_ENDPOINT: Kd (µM)

1. O=C(NC1CCCC1)c1cccc(C(c2ccccc2O)N2CCN(c3cccc(Cl)c3Cl)CC2)c1 (stereo not shown)    37.1

The values you see were collected from patent US11292773B2.
